test system: muMax20 (Max(13-93) K31hArg/K57hArg, M65Nle); test: PBM 8-mer E-score (E-score (rank enrichment, -0.5 to 0.5)); higher = stronger preferential binding
Over roughly 33,000 sequences, “E-score (rank enrichment, -0.5 to 0.5)” has its median near -0.0068; the highest 2% begin near 0.24. What follows is part of a selection rich in the highest values, with near analogues and random picks from the rest.
Measured attribute: PBM 8-mer E-score
I only need the number, thanks.

Past entries and their recorded results:
>>> recorded_result("ATCGTAAG")
0.00053
>>> recorded_result("AAGTGTGA")
0.0524
>>> recorded_result("GACATCCC")
-0.00641
>>> recorded_result("CTGTGTTA")
0.0692
>>> recorded_result("GGAACAAA")
0.171
>>> recorded_result("CCCATGGC")
-0.167
>>> recorded_result("CCATGTCG")
-0.0015
>>> recorded_result("GATAATCA")
0.311

Query :: Any idea what its PBM 8-mer E-score is? The sequence is GATAGCGA
Result :: -0.086

Query :: Any idea what its PBM 8-mer E-score is? The sequence is AATAATCA
Result :: 0.0885

Query :: Any idea what its PBM 8-mer E-score is? The sequence is AATGACCC
Result :: 0.074
